Test Target: HIV-1 reverse transcriptase (Human immunodeficiency virus 1, UniProt P03366;P03366 P03366:600-1159,P03366:600-1039)
Method Description: filter; HRT buffer, 6 mM MgCl2, 37 C
Condition Label: tags: expressed in E. coli, purified per Davies et al. 1991; label: 5'-32P
pKd: −log10 of the molar value.
Reported Metric: pKd

Binder	Quantitative Result
RT6 (ssDNA) DNA: ATCCGCCTGATTAGCGATACTCAGGCGTTAGGGAAGGGCGTCGAAAGCAGGGTGGGACTTGAGCAAAATCACCTGCAGGGG	8.30
